B1: INTS3 (parent)
chain: YPPLEGHVRQGVFSSLNHIVEKRV

variants of: B1; test: protein stability index of a GFP-peptide fusion (GPS, HEK-293T) (PSI 1-6); higher = more stable; settings: c terminus: a fixed tail appended;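 note: lentivirally expressed fusions sorted by FACS into six bins by GFP to DsRed ratio, PSI derived from sequencing read proportions per bin multiplied by bin number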

{"columns": ["macromoleculeSequence", "protein stability index"],
 "data": [
  ["YPPLEGTVRQGVFSSLNHIVEKRV [H7T]", 2.56],
  ["YPPLEGHVRQGVFSSLNHIVEKRC [V24C]", 2.01],
  ["YPPLEGHVRQGVFSSLNEIVEKRV [H18E]", 2.91],
  ["YPPLEGHVRVGVFSSLNHIVEKRV [Q10V]", 2.28],
  ["YPPLEGHVRQYVFSSLNHIVEKRV [G11Y]", 1.85],
  ["YPPLEGHVRQQVFSSLNHIVEKRV [G11Q]", 2.35],
  ["YPPLEGHVRQGVFSSDNHIVEKRV [L16D]", 4.2],
  ["YPPLEGGVRQGVFSSLNHIVEKRV [H7G]", 2.3],
  ["YPPLWGHVRQGVFSSLNHIVEKRV [E5W]", 1.9],
  ["YKPLEGHVRQGVFSSLNHIVEKRV [P2K]", 2.49],
  ["YPPLEGHVRQGVFSSLNFIVEKRV [H18F]", 1.97],
  ["YPKLEGHVRQGVFSSLNHIVEKRV [P3K]", 3.04],
  ["YPPLEGHVRQGVFSSLYHIVEKRV [N17Y]", 1.71],
  ["YPPLEGHVRQGVFSSLNHIVEWRV [K22W]", 2.14],
  ["YPPLEGHVRQFVFSSLNHIVEKRV [G11F]", 1.8],
  ["YPPLEGHVLQGVFSSLNHIVEKRV [R9L]", 2.07],
  ["YPPLEGHVRQGVFSSLNHIVWKRV [E21W]", 1.95],
  ["YPPLEGHVRQGVFSSLNHPVEKRV [I19P]", 2.47],
  ["DPPLEGHVRQGVFSSLNHIVEKRV [Y1D]", 3.85],
  ["YPPAEGHVRQGVFSSLNHIVEKRV [L4A]", 2.7],
  ["YPPLEGHVRQGVFVSLNHIVEKRV [S14V]", 2.29],
  ["YPPLEFHVRQGVFSSLNHIVEKRV [G6F]", 2.2]
]}

Recorded values, source the supplement of paper PMC10567573.
